- system tested: PIM1 (Homo sapiens (Human))
- experimental protocol: biochemical
- Assay type: biochemical
- condition details: 10 μM ATP, 90 min, room temperature; read-out: PIM1 LC3K (KI)
Hi! Could you tag entries with Ki below 0.2 nM as true, and those at or above as false? Much appreciated.

# count of solved cases: 3
molecule	classification
Cc1cncc(-c2cc3c(cn2)cnn3-c2cccc(C3CNCCC3(F)F)n2)n1 (single isomer, unassigned) [Compound 271]	true
CO[C@@]1(C)CNCCN(c2cccc(-n3ncc4cnc(-c5cnn(CC(F)(F)F)c5)cc43)n2)C1 [Compound 261]	false
OC1CNCCN(c2cccc(-n3ncc4cnc(-c5cncc(C6CC6)c5)cc43)n2)C1 (stereo not drawn) [Compound 115]	true

Challenge: Dear reviewer, please state whether CCNc1cncc(-c2cc3c(cn2)cnn3-c2cccc(N3CCNCC3)n2)n1 [Compound 285] has Ki strictly beneath 0.2 nM.
Response given: true

Challenge: Please indicate whether the reported Ki of Cc1cncc(-c2cc3c(cn2)cnn3-c2cccc(N3CCCNC3=O)n2)n1 [Compound 252] is strictly below 0.2 nM.
Response given: false

Challenge: # TODO verify Ki < 0.2 nM strictly for this molecule: Cc1cncc(-c2cc3c(cn2)cnn3-c2cccc(C3=CCNCC3)n2)n1 [Compound 160]
Response given: false

---

- system tested: PIM2 (Homo sapiens (Human), UniProt Q9P1W9)
- Sequence (Q9P1W9 whole entry): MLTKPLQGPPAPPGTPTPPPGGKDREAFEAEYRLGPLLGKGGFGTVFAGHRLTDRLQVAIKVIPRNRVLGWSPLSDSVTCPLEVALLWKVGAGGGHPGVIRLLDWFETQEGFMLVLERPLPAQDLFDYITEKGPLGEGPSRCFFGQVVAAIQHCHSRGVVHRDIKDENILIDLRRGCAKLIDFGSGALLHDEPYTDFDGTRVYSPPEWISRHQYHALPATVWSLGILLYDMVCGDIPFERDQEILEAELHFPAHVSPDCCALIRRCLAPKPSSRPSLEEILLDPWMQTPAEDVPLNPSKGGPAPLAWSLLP
Counter-ions that a name gives are not always drawn.
# label = MET if Ki < 0.02 µM else NOT MET

Reference set (3 entries):
compound	classification
Cc1cncc(-c2cc3c(cn2)cnn3-c2ccc(CO)c(N3CCC[C@H](N)C3)n2)n1	MET
Cc1cncc(-c2cc3c(cn2)cnn3-c2cnc(C3CC3)c(N3CCC[C@H](N)C3)n2)n1	MET
Cn1cc(-c2cc3c(cn2)cnn3-c2cccc(N3CCNC[C@@H](O)C3)n2)cn1	MET

Challenge: Quick check: Ki of Cc1cncc(-c2cc3c(cn2)cnn3-c2cccc(N3CCC4(CCCN4)CC3)n2)n1 under 0.02 µM?
Response given: MET

Challenge: Please indicate whether the reported Ki of FCCn1cc(-c2cc3c(cn2)cnn3-c2cccc(N3CCCNCC3)n2)cn1 is strictly below 0.02 µM.
Response given: MET

Challenge: Say whether its Ki is strictly beneath 0.02 µM. Entry: OCc1cncc(-c2cc3c(cn2)cnn3-c2cccc(N3CCNCC3)n2)n1 [Compound 273, dihydrochloride]
Response given: MET

Challenge: is_below(Ki, 0.02 µM) for Cc1cnc(O)c(-c2cc3c(cn2)cnn3-c2cncc(N3CCCNCC3)n2)c1 ?
Response given: NOT MET

Challenge: Is the reported Ki for Cc1cncc(-c2cc3c(cn2)cnn3-c2cccc(N3CCC4(CCNCC4)C3)n2)n1 strictly below 0.02 µM?
Response given: MET

Challenge: Would you kindly verify if Ki of Cc1cncc(-c2cc3c(cn2)cnn3-c2ccc(C)c(N3C[C@@H](N)CCC3=O)n2)n1 is strictly less than 0.02 µM?
Response given: NOT MET

Challenge: Dear colleague, could you confirm whether Ki of OC[C@@H]1CCCN1c1cncc(-c2cc3c(cn2)cnn3-c2cccc(N3CCNCC3)n2)n1 [Compound 280, dihydrochloride] falls below 0.02 µM? Thanks.
Response given: MET

Challenge: Is the reported Ki for Cn1cc(-c2cc3c(cn2)cnn3-c2cn(C)c(=O)c(N3CCNCC(O)C3)n2)cn1 (stereo not drawn) strictly below 0.02 µM?
Response given: NOT MET

Challenge: Given the entry Cc1cncc(-c2cc3c(cn2)cnn3-c2cccc(N3CCCN(C4COC4)CC3)n2)n1 , would its reported Ki be below 0.02 µM?
Response given: NOT MET

---

The compounds listed here are annotated with their Ki.
- system tested: PIM1 (Homo sapiens (Human), UniProt P11309)
- Sequence (P11309 whole entry): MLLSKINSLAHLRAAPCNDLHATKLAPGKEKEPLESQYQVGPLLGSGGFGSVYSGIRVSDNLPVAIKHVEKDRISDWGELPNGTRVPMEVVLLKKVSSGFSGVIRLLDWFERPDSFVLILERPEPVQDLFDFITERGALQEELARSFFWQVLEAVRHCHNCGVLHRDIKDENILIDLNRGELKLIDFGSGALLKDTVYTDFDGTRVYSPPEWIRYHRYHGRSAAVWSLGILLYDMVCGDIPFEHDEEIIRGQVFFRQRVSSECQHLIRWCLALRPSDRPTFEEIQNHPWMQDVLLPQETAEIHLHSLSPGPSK
- experimental protocol: biochemical
- Format: biochemical
- condition details: 10 μM ATP, 90 min, room temperature; read-out: PIM1 LC3K (KI)
- Protocol: A fluorescent-labeled Pim-specific peptide substrate, was custom synthesized by American Peptide Company (Sunnyvale, Calif.). Reaction Buffer contained 10 mM HEPES, pH 7.2, 10 mM MgCl2, 0.01% Tween 20, 2 mM DTT. […] PIM reactions were carried out in a final volume of 10 μL per well in a 384-well plate. […] Substrate conversion was calculated from the electropherogram using HTS Well Analyzer software (Caliper Life Sciences, Hopkinton, Mass.). Ki values for the test compound were calculated.
Structures can show the parent of a compound that is named as a salt.
Return type: number; implicit unit nM.

compound	measurement kind	quantitative readout
Cc1cnc(O)c(-c2cc3c(cn2)cnn3-c2cncc(N3CCCNCC3)n2)c1	Ki	50.2
Cn1ncc(-c2cc3c(cn2)cnn3-c2ccccc2F)c1N1CCC(N)CC1	Ki	15.5
Cn1cc(-c2cc3c(cn2)cnn3-c2cccc(N3CCNC[C@@H](O)C3)n2)cn1	Ki	0.316
Cn1ncc(-c2cc3c(cn2)cnn3-c2ccccc2F)c1C1=CCNCC1	Ki	130
c1cc(N2CCNCC2)nc(-n2ncc3cnc(-c4cncc(C5CC5)n4)cc32)c1	Ki	0.063
Cc1cncc(-c2cc3c(cn2)cnn3-c2cccc(N3CCCC4(CN(C=O)C4)C3)n2)n1	Ki	4.41
COc1cncc(-c2cc3c(cn2)cnn3-c2cccc(N3CCNCC3)n2)n1	Ki	0.113
C#Cc1cncc(-c2cc3c(cn2)cnn3-c2cccc(N3CCNCC3)n2)n1	Ki	0.136

Let us examine a further case.
Challenge: Tell me Ki reported for FC(F)c1cncc(-c2cc3c(cn2)cnn3-c2cccc(N3CCNCC3)n2)n1 [Compound 279, trifluoroacetate]
Response given: 0.229
